- System: BT-549 breast
- procedure.text: NCI tumour cell line growth inhibition, 48 h
measured.quantity: TGI (µM)
Number in µM, nothing else.

Worked set:
* CC(C)Oc1cccc(N2C(n3ccnc3)=Nc3ccncc3S2(=O)=O)c1 | 29
* COC(=O)[C@]1(C)CCC[C@@]2(C)C1CC[C@]13C=C(C(C)C)[C@H](CC21)CC3(Cl)C#N (some centres undefined) | 86
* COc1cc2c(cc1Nc1nc(N3CCc4ccccc43)c3cc[nH]c3n1)N(C(=O)CN(C)C)CC2 | 15.7
* COc1ccc2c(c1)c(-c1nc(-c3c[nH]c4ncccc34)cs1)cn2CCCN1CCOCC1 | 5.87

Please find the next compound below.
-- ask Looking for the measured TGI of CCCCCCCCCCCCCCCCCCOc1ccccc1CC(=O)NCC[N+]1(C)CCOCC1 , can you help?
-- reply 74
